- assay_comment: yeast display, Sf9 membrane polyspecificity reagent, FACS + sequencing; frameworks hold sequencing errors
measured_metric: polyreactivity (PSR sort gate)

Please review the entries below; each comes with its answer.
>  <biopolymer_sequence>
QVLLVESGGGLVQAGGSLRLSCAASGFIFYLNGMGWYRQAPGKERELVAAISGRGGRTYYADSVKGRFTISRDNAKNTVYLQMNSLIPEDTAVYYCAAQYVPSRYGYWGQGTQVTVSS

>  <measured_metric>
polyreactivity (PSR sort gate)

>  <result>
high polyreactivity

$$$$
>  <biopolymer_sequence>
QVQLVESGGGLVQEGGSLRLSCAASGRIFGVNAMGWYRQAPGKERELVAAIFSGGSTYYADSVKGRFTISRDNAKNTVYLQMNSLKPEDTAVYYCAARFARYDWSMYYWGQGTQVTVSS

>  <measured_metric>
polyreactivity (PSR sort gate)

>  <result>
low polyreactivity

$$$$
>  <biopolymer_sequence>
QVHLVESGGGLVQAGGTLRLSCAASGLFARNAMGWYRQAPGKERELVAAINRSGGSTYYADSVKGRFTISRDNAKNTVYLQMNSLKPEDTAVYYCNKAFTHTKDRSPIAYEYGYWGQGTQVTVSS

>  <measured_metric>
polyreactivity (PSR sort gate)

>  <result>
low polyreactivity

$$$$
>  <biopolymer_sequence>
QVQLVESGGGLVQAGGSLRLSCAASGFIFSSYAMGWYRQAPGKERELVAAISKSGDRTSYADSVKGRFTISRDNAKNTVYLQMNSLKPEDTAVYYCAKDRLYRTKKYRDMYYWGQGTQVTVSS

>  <measured_metric>
polyreactivity (PSR sort gate)

>  <result>
high polyreactivity

$$$$

# context switch: different sequence, same polyreactivity (PSR sort gate)
Kindly note the recorded polyreactivity (PSR sort gate) for QVQLVESGGGLVQAGGSLRLSCAASGRTFRYYAMGWNRQAPGKESELVASISRSGGSTYYADSVKGRFTISRDNAKITVYLQMNSLKPEDTAVYYCAVGKGSHYLGFDYWGQGTQVTVSS , which is high polyreactivity

---

- assay_comment: yeast display, Sf9 membrane polyspecificity reagent, FACS + sequencing; frameworks hold sequencing errors
measured_metric: polyreactivity (PSR sort gate)

Please review the entries below; each comes with its answer.
>  <biopolymer_sequence>
QVQLVESGGGLVQAGGSLRLSWAASGFIFDPNAMGWYRQAPGKERDLVAAISSSGGRTYYADSVKGRFTISRDNAKNTVYLQMNSLKPEDTAVYYCATDTSVQGQEYDYWGQGTQVTVSS

>  <polyreactivity (PSR sort gate)>
low polyreactivity

$$$$
>  <biopolymer_sequence>
QVQLVESGGGLVQAAGSLRLSCAASGSIFNRSTMGWSRQAPGKERELVAGISRGGTTYYADSVKGRFTISRDNAKNTVYLQMNSLKPEDTAVFYCAADYGLLYGQLWGYGYWGQGTQVTVSS

>  <polyreactivity (PSR sort gate)>
high polyreactivity

$$$$
>  <biopolymer_sequence>
QVQLVESGGGLVQAGGILRLSCAASGRTIDHYAKGSYRKAPGKERELVAAISTTGGSTYYADSVKGRFTISRDNAKNTVYLQMNSLKPADTAVYYCAARGLRTGGYWGQGTQVTVSS

>  <polyreactivity (PSR sort gate)>
high polyreactivity

$$$$
>  <biopolymer_sequence>
QVQLVESGGGLVQAGGSLRLSCAATGSIFEGYAMGWYRQAPGKERELVARITSDDDSTYYADSVKGRFTISRDNAKNSVYLQMNSLKPEDTAVYYCNADYYWTSLAMDSWGQGTQVTVSS

>  <polyreactivity (PSR sort gate)>
low polyreactivity

$$$$
>  <biopolymer_sequence>
QVQLVESGGGLVQAGGSLRLSCAASGRIFKQYAMGWYRQAPGKERELVAAISWDGGSTYYADSVKGRFTISRDNAKNTVYLQMNSLKPEDTAVYDCNKDLYYAYDYWGQGTQVTVSS

>  <polyreactivity (PSR sort gate)>
low polyreactivity

$$$$

Kindly note the recorded polyreactivity (PSR sort gate) for QVQLVESGGGLVQAGGSLRLSCAASGSIFGLYAMGWYRQAPGKERELVAAINWNGGDTYYADSVKGRFTISRDYAKNTVYLQMNSLIAVDNAVYYCAAYPRDPYKEYDYLGQGTQVTVSS , which is low polyreactivity

Kindly note the recorded polyreactivity (PSR sort gate) for QDQLLESVGGLVQAGGSLRLSCAATGSTFHRSVMGSYRQAPGKEREMVAVINSTGGSTYYADSVKGRFTISLDNAKNTVYLQMNSVKPEDSAVYYFAADLYSIEYETAYRGYEYWGQGTQVTVSS , which is low polyreactivity

Kindly note the recorded polyreactivity (PSR sort gate) for QVQLVETGRGLVQAGGSLRLSSAASGFTFGPYDMGWYIQAPGKERELVATIRSGDSTKYADSVKGRFTISRDNAKNTVYLQMNSLKPEDSAGYYCARDARASARRKRDDYWGQGTQVTVSS , which is low polyreactivity

Kindly note the recorded polyreactivity (PSR sort gate) for QVQLVESGGGLVQAGGSLRLTCAASGSIFYYYAMGWYRQAPGKERELVASITYRGGSTYYADSVKGRFTISRDYAKNTVYLLMNSLKPEDTAFYYCAVVGYRYRHYYWGQGTQVTVSS , which is high polyreactivity
